Provenance of the data: patent US20220163515

- TESTED ON: PumHD wild-type (Pumilio homology domain) (Homo sapiens, UniProt Q14671 Q14671:828-1176)
- Sequence (Q14671 828-1176, one chain of several): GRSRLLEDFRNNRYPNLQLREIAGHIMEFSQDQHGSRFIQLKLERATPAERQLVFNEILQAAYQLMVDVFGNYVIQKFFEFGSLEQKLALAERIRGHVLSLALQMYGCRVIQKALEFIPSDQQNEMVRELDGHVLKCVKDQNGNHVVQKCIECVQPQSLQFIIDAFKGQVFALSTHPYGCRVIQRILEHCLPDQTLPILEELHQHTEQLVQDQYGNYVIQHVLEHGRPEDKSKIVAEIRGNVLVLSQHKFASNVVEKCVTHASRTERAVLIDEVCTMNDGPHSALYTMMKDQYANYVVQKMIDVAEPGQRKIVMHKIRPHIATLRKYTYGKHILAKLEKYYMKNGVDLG
- METHOD NOTES: FP; 25 mM Tris-HCl pH 7.5, 0.5 mM EDTA, 50 mM KCl, 0.1 mg/mL BSA; active-fraction corrected
- CONDITION NOTES: tags: 6xHis (pBadHisB vector); label: 5'-FAM
READOUT KIND: pKd
Scale for pKd: -log10 of concentration given in mol/L; no unit attached.

Query string: Give a short answer stating reported pKd for CCAGAAUUGUAUAUAUUCG (ssRNA) [wild-type NRE cognate] .
Result string: 10.06
